- System: SK-MEL-5 melanoma
- PROCEDURE_TEXT: NCI tumour cell line growth inhibition, 48 h
I'd be grateful if you could share measured TGI for these entries.
Numbers only, in µM.

// known answers, use as guide
CCN(Cc1cccc(OC)c1)c1ccc(CO)c(Cl)c1
22.7
CC1=C([Se]CC(OC(=O)CC[Se]c2ccccc2)C(=O)NCCCCCC(=O)OCc2ccccc2)C(=O)c2ccccc2C1=O (stereo not given)
3.06
Nc1ccccc1C#C/C=C\C#Cc1ccccc1C(F)(F)F
6.3
CCCCn1c2cc(OCc3cn(-c4ccc(Cl)cc4)nn3)ccc2c2ccnc(C)c21
9.87
CC(C)NCCNC(=O)c1ccccc1Nc1c(Cl)cccc1Cl
17.3

Parameters: items (list). Returns: TGI for each item.
1. C=C1CC(Cn2cc(Br)c(=O)[nH]c2=O)(c2ccc(Br)cc2)OC1=O (stereo not given)
2. Cc1ccc2c(c1)nc(C(=O)c1ccco1)c(C(F)(F)F)[n+]2[O-]
3. CSc1nc2c(c(=O)[nH]1)N=C1c3ccccc3C(=O)C1C(c1ccc(F)cc1)N2 (stereo not given)
4. Cc1c(C#N)cccc1-c1cc(-c2cn(Cc3cccc(C(C)(C)O)n3)nn2)nc(N)n1

Given back:
1. 7.5
2. 2.94
3. 66.6
4. 35.1

Asked: Param item = CCCCCCCCCCC[N+]1(Cc2ccccc2)CC2CCN(Cc3ccccc3)CC2C1 (stereo not given) ; retrieve measured TGI.
Given back: 0.357

---

- System: MDA-MB-231 breast
- PROCEDURE_TEXT: NCI tumour cell line growth inhibition, 48 h
I'd be grateful if you could share measured TGI for these entries.

// known answers, use as guide
Oc1ccc(O)c(Sc2nnc(CCCCCCCCc3nnc(Sc4cc(O)ccc4O)o3)o2)c1
> 100 µM
S=c1oc(CCCCCCCCc2nn(CNc3ccc(Cl)cc3)c(=S)o2)nn1CNc1ccc(Cl)cc1
> 100 µM
CSc1nc2c(c(=O)[nH]1)N=C1c3ccccc3C(=O)C1C(c1ccc(F)cc1)N2 (stereo not given)
> 100 µM
CCCC(CC)c1cc(O)c(O)cc1C(CC)CCC (stereo not given)
> 10 µM
COc1ccc(Nc2nc(NNC(=O)Cc3ccccc3)nc(NNC(=O)c3ccncc3)n2)cc1
> 10 µM
COc1ccc(/C=N/N=C(\N)NO)c(OC)c1OC
> 100 µM
CCn1c(SCc2nnc(Nc3ccccc3)s2)nc2ccccc2c1=O
10.2 µM
O=P1(N(CCCl)CCCl)NCCCO1 (stereo not given)
> 250 µM
c1ccc(Cc2nc3ccc(Nc4ncnc5ccccc45)cc3[nH]2)cc1
> 25 µM

Asked: Param item = "O=C(c1ccccc1)c1ccc2nc(-c3c(Cl)c(Cl)c(Cl)c(Cl)c3C(=O)Nc3ccco3)[nH]c2c1" ; retrieve measured TGI.
Given back: > 100 µM

---

I'd be grateful if you could share measured TGI for these entries.
- Tested on: 786-0 renal
- PROCEDURE_TEXT: NCI tumour cell line growth inhibition, 48 h

// known answers, use as guide
CN1C(=O)C(CCO)(C(C)(C)C)c2ccccc21 (stereo not drawn)
> 100 µM
CC(C)CCCC(C)[C@H]1CC[C@H]2NCCCC[C@]12C (stereo partly drawn)
10.5 µM
N#C[C@H]1C(=O)C(c2nc3ccccc3[nH]2)S[C@H]1c1ccccc1 (stereo partly drawn)
54.2 µM
COc1cc2oc(=O)ccc2cc1C1OC(=O)C2OC21C (stereo not drawn)
> 100 µM
Cc1c(Cl)c(=O)oc2cc(OCC(O)COC(C)C)ccc12 (stereo not drawn)
> 100 µM
Cc1cccc(=O)c([O-])c1.Cc1cccc(=O)c([O-])c1.Cc1cccc(=O)c([O-])c1.Cc1cccc(=O)c([O-])c1.[Th+4]
> 78.5 µM
CC[C@]1(O)CC2CN(CCc3c([nH]c4ccccc34)[C@@](C(=O)OC)(c3cc4c(cc3OC)N(C)[C@H]3[C@@](O)(C(=O)OC)[C@H](OC(C)=O)[C@]5(CC)C=CCN6CC[C@]43[C@@H]65)C2)C1 (stereo partly drawn)
3.13 µM

Asked: Lab note: need TGI for "COc1ccc2[nH]c(-c3ccccn3)cc(=O)c2c1" on 786-0 renal, anyone have it?
Given back: > 100 µM

---

- Tested on: TK-10 renal
- PROCEDURE_TEXT: NCI tumour cell line growth inhibition, 48 h
I'd be grateful if you could share measured TGI for these entries.

// known answers, use as guide
C=C(C)[C@@H]1CC[C@]2(C(=O)OC3OC(COC4OC(CO)C(OC5OC(C)C(O)C(O)C5O)C(O)C4O)C(O)C(O)C3O)CC[C@]3(C)[C@H](CC[C@@H]4[C@@]5(C)CC[C@H](O)[C@@](C)(CO)[C@@H]5CC[C@]43C)[C@@H]12 (stereo not given in full)
> 10 µM
Cc1cc(C)c(C#N)c(SC(=S)NC(=O)c2ccccc2)n1
> 100 µM

Parameters: items (list). Returns: TGI for each item.
1. Cc1ccc(NC(=O)CC2C(=O)Nc3ccccc3S2=O)cc1C (stereo not given)
2. N#CC(=S)Nc1cccc(Cl)c1
3. [Cl][Bi]([O]c1ccccn1)[O]c1ccccn1

Given back:
> 100 µM
> 100 µM
> 100 µM

---

- Test system: 786-0 renal
- PROCEDURE_TEXT: NCI tumour cell line growth inhibition, 48 h
I'd be grateful if you could share measured GI50 for these entries.

// known answers, use as guide
COc1ccccc1-[n+]1cc(-c2ccc(-c3ccccc3)cc2)n2c1CCCCC2
1310 nM
Oc1ccc(/C=N\Nc2ccccn2)c(O)c1
1530 nM
C1CC[N-]CC1.C1CC[N-]CC1.C1CC[N-]CC1.C1CC[N-]CC1.[Cl][Rh][Cl]
41400 nM
COc1ccc(/C=C/C(=O)c2cc3c(N)c(C(=O)Nc4ccccc4Cl)sc3nc2C)cc1
839 nM

Asked: Lab note: need GI50 for CCOP(=O)(OCC)C(NC(c1ccccc1)c1ccccc1)c1ccccc1 (stereo not given) on 786-0 renal, anyone have it?
Given back: 14600 nM

---

I'd be grateful if you could share measured TGI for these entries.
- System: HCT-15 colon
- PROCEDURE_TEXT: NCI tumour cell line growth inhibition, 48 h

// known answers, use as guide
Cn1c(=O)[nH]n(-c2ccc3ccccc3c2)c1=O
> 100 µM
CCCCCCCCCCC[N+]1(Cc2ccccc2)CC2CCN(Cc3ccccc3)CC2C1 (stereo not drawn)
2.96 µM

# input for lookup
Asked: Param item = "C/C(=N\NC(=O)c1ccncc1)c1cccc(C(F)(F)F)c1" ; retrieve measured TGI.
Given back: > 10 µM

---

I'd be grateful if you could share measured TGI for these entries.
- System: MOLT-4 leukemia
- PROCEDURE_TEXT: NCI tumour cell line growth inhibition, 48 h

// known answers, use as guide
CCOC(=O)/C(C1=N[C@H](C(=O)OCC)CS1)=C(\O)c1ccccc1
> 100 µM
CC(=O)NC1C(OCc2ccccc2)OC(CO)C(O)C1OCC(=O)N[C@@H](C)C(=O)N[C@H](CCC(=O)NCCCCNc1c2ccccc2nc2cccc([N+](=O)[O-])c12)C(N)=O (some centres not stated)
> 100 µM

Parameters: items (list). Returns: TGI for each item.
1. CC(C)NCCNC(=O)c1ccccc1Nc1c(Cl)cccc1Cl
2. CC(=O)NCC1OC2COC(c3ccccc3)OC2C2N=C(c3ccccc3)OC12 (configuration not stated)
3. C/C(=N/S(=O)(=O)c1ccc(Cl)c(Cl)c1)OCC(C)(C)C
4. Cc1sc2nc3n(sc4nc5sc(C)c(C)c5c(=O)n43)c(=O)c2c1C
5. Cc1ccc(Cl)c2c(=O)cc(-c3ccccc3)[nH]c12

Given back:
1: 27.3 µM; 2: > 100 µM; 3: > 100 µM; 4: 52 µM; 5: > 100 µM

---

I'd be grateful if you could share measured TGI for these entries.
- Tested on: M14 melanoma
- PROCEDURE_TEXT: NCI tumour cell line growth inhibition, 48 h

C/C=C\C(CC(=O)NCCc1c[nH]c2ccccc12)CC(=O)OC (centres undefined)
> 100 µM
CC(=O)NC1C(OCc2ccccc2)OC(CO)C(O)C1OCC(=O)N[C@@H](C)C(=O)N[C@H](CCC(=O)NCCCCNc1c2ccccc2nc2cccc([N+](=O)[O-])c12)C(N)=O (some centres undefined)
> 22.2 µM
Cc1c(N=Nc2ccc([N+](=O)[O-])cc2)nc2scc(-c3ccccc3)n12
> 100 µM

Asked: Param item = "O=c1cc(C(F)(F)F)c2cc3c(cc2o1)NCCC3" ; retrieve measured TGI.
Given back: > 100 µM

---

- System: PC-3 prostate
- PROCEDURE_TEXT: NCI tumour cell line growth inhibition, 48 h
PROPERTY: TGI

C=C(C)C(=O)O[C@H]1CC2(CO)O[C@@H]2CC/C(COC(C)=O)=C/C2OC(=O)C(=C)[C@@H]21 (some centres undefined)
> 100 µM
COc1c(-c2ccc(F)cc2)oc2cc(O)cc(O)c2c1=O
> 100 µM
O=C(O)c1cc(Nc2c(O)c3c(c(O)c2Cl)C(=O)C=CC3=O)ccc1O
> 10 µM

# input for lookup
Asked: Param item = "O=C1/C(=C(/Br)I)c2ccccc2-c2ccccc21" ; retrieve measured TGI.
Given back: 23.7 µM
